# TARGET UNDER TEST: PPAR-alpha (UniProt Q07869)
# RUN DESCRIPTION: PPAR-alpha transactivation assay (GAL4 chimera, luciferase reporter) in CV-1 cells
# TEST CONDITIONS: GAL4-PPAR LBD chimera
Form field: EC50 (one value per entry).

// EC50 value for O=C(O)Cn1ccc2cc(Br)c(S(=O)(=O)N3CCN(c4ccc(C(F)(F)F)cn4)CC3)cc21 : > 100 µM

The molecule listed as O=C(O)C1CCc2ccc(S(=O)(=O)N3CCN(c4ccc(C(F)(F)F)c(F)c4)CC3)cc21 (stereo not shown) shows EC50 equal to < 5 µM

GET /value?item= C[C@@H]1CN(c2ccc(SC(F)(F)F)cc2)C[C@H](C)N1S(=O)(=O)c1cccc2c1CC(C(=O)O)C2 (stereo partly shown) &field=EC50 returns 5 to 100 µM

Please fill in: EC50 reported for O=C(O)C1CCc2ccc(S(=O)(=O)N3CCN(c4ccc(C(F)(F)F)c(Cl)c4)CC3)cc21 (stereo not shown) = < 5 µM

What the record says about O=C(O)C1Cc2cccc(S(=O)(=O)N3CCN(c4ccc(OCC(F)(F)F)cc4)CC3)c2C1 (stereo not shown) : EC50 is 5 to 100 µM

Consider O=C(O)Cn1ccc2ccc(S(=O)(=O)N3CCN(c4ccc(OC(F)(F)F)cc4)CC3)cc21 . Its measured EC50 is 5 to 100 µM

Reported EC50 for C[C@@H]1CN(c2cccc(OC(F)(F)F)c2)C[C@H](C)N1S(=O)(=O)c1cccc2c1CC(C(=O)O)C2 (single isomer, unassigned) [Example 129] was > 100 µM

* * *

# TARGET UNDER TEST: PPAR-gamma (UniProt P37231)
# RUN DESCRIPTION: PPAR-gamma transactivation assay (GAL4 chimera, luciferase reporter) in CV-1 cells
# TEST CONDITIONS: GAL4-PPAR LBD chimera
// reported EC50 for each item listed

Sample answers from the record:
The reported value for O=C(O)C1Cc2cccc(S(=O)(=O)N3C4CSCC3CN(c3ccc(OC(F)(F)F)cc3)C4)c2C1 (stereo not drawn) [Example 125] in terms of EC50 is > 100 µM

Briefly, EC50 measured for O=C(O)C1CCc2ccc(S(=O)(=O)N3CCN(c4ccc(C(F)(F)F)cc4F)CC3)cc21 (stereo not drawn) [Example 45] : < 5 µM

// O=C(O)C1Cc2ccc(S(=O)(=O)N3CCN(c4ccc(Cl)c(Cl)c4)CC3)cc2C1 (stereo not drawn) [Example 7] : EC50 value = 5 to 100 µM

New cases:
EC50 recorded for this compound, C[C@@H]1CN(c2ccc(C(F)(F)F)cc2)C[C@H](C)N1S(=O)(=O)c1cccc2c1CC(C(=O)O)C2 (stereo partly drawn) [Example 105] , is 5 to 100 µM

Value of measured EC50 for the entry C[C@@H]1CN(c2ccc(C(F)(F)F)c(F)c2)C[C@H](C)N1S(=O)(=O)c1cccc2c1CC(C(=O)O)C2 (stereo partly drawn) [Example 83] : 5 to 100 µM

Recorded EC50 (compound O=C(O)Cc1csc2ccc(S(=O)(=O)N3CCN(c4ccc(C(F)(F)F)cc4F)CC3)cc12 [Example 47] ): < 5 µM

* * *

# TARGET UNDER TEST: PPAR-alpha (UniProt Q07869)
# RUN DESCRIPTION: PPAR-alpha transactivation assay (GAL4 chimera, luciferase reporter) in CV-1 cells
# TEST CONDITIONS: GAL4-PPAR LBD chimera
pEC50: −log10 of the molar value.
MEASURED ATTRIBUTE: pEC50

Past entries and their recorded results:
Record C[C@@H]1CN(c2ccc(Cl)c(Cl)c2)C[C@H](C)N1S(=O)(=O)c1ccc2c(c1)C(C(=O)O)CC2 (some centres unmarked) , field pEC50: > 5.30

pEC50 recorded for this molecule, Cc1ccc(N2C[C@@H](C)N(S(=O)(=O)c3cccc4c3CC(C(=O)O)C4)[C@@H](C)C2)cc1C (some centres unmarked) , is < 4.00

Value of measured pEC50 for the entry C[C@@H]1CN(c2ccc(Cl)c(OC(F)(F)F)c2)C[C@H](C)N1S(=O)(=O)c1cccc2c1CC(C(=O)O)C2 (some centres unmarked) : < 4.00

Lab note: measured pEC50 of C[C@@H]1CN(c2ccc(C(F)(F)F)c(Cl)c2)C[C@H](C)N1S(=O)(=O)c1cccc2c1CC(C(=O)O)C2 (single isomer, unassigned) [Example 139] was < 4.00

Consider the record given below.
Summary for this molecule, O=C(O)C1Cc2cccc(S(=O)(=O)N3CCN(c4ccc(OC(F)(F)F)cc4)CC3)c2C1 (centres unmarked) : pEC50 is > 5.30

* * *

Listed next: entries and their corresponding EC50.
# TARGET UNDER TEST: PPAR-gamma (UniProt P37231)
# Sequence (P37231 1-505): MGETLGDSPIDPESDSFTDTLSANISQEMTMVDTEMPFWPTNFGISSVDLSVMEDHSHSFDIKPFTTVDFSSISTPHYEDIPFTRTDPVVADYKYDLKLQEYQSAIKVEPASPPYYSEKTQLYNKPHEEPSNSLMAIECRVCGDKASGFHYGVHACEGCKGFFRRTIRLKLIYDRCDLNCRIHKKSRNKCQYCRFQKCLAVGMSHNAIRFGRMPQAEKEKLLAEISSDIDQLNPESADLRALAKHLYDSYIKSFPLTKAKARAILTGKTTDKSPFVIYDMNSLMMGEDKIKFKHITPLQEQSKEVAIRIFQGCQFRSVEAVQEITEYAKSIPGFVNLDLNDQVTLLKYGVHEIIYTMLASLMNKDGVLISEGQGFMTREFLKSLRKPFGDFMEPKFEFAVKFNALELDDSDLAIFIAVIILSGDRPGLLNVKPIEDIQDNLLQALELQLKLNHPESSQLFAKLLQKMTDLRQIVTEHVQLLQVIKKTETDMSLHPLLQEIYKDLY
# RUN DESCRIPTION: PPAR-gamma transactivation assay (GAL4 chimera, luciferase reporter) in CV-1 cells
# TEST CONDITIONS: GAL4-PPAR LBD chimera

Sample records with EC50:
EC50 recorded for this molecule, CCc1ccc(N2C[C@@H](C)N(S(=O)(=O)c3cccc4c3CC(C(=O)O)C4)[C@@H](C)C2)cc1 (stereo partly drawn) , is > 100 µM

The value of EC50 measured for the molecule C[C@H]1CN(S(=O)(=O)c2cccc3c2CC(C(=O)O)C3)[C@@H](C)CN1c1ccc(C(F)(F)F)cn1 (stereo partly drawn) turned out to be 5 to 100 µM

Then there is this molecule:
Query C[C@H]1CN(c2ccc(C(F)(F)F)cn2)C[C@H](C)N1S(=O)(=O)c1ccc2c(c1)C(C(=O)O)CC2 (stereo partly drawn) yields EC50 of < 5 µM

* * *

The entries below come with measured EC50 values attached.
# TARGET UNDER TEST: PPAR-alpha (UniProt Q07869)
# Sequence (Q07869 1-468): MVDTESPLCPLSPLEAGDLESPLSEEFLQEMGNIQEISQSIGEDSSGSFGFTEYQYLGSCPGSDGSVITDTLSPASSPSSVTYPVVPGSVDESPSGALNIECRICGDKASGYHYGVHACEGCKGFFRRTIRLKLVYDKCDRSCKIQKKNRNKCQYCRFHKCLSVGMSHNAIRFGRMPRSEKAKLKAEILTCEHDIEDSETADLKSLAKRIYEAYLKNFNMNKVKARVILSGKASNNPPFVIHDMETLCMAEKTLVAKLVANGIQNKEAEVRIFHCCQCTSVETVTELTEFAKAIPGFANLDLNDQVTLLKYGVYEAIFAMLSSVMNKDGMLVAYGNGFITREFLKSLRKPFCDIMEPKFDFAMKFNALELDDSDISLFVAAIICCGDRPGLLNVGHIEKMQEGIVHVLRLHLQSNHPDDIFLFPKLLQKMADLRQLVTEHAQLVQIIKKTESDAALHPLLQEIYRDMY
# RUN DESCRIPTION: PPAR-alpha transactivation assay (GAL4 chimera, luciferase reporter) in CV-1 cells
# TEST CONDITIONS: GAL4-PPAR LBD chimera

For orientation, consider the following solved cases.
Looking up O=C(O)C1CCc2ccc(S(=O)(=O)N3CCN(c4ccc(C(F)(F)F)cn4)CC3)cc21 (stereo not shown) , I see its EC50 listed as < 5 µM

Briefly, EC50 measured for C[C@@H]1CN(c2ccc(Cl)cc2)C[C@H](C)N1S(=O)(=O)c1cccc2c1CC(C(=O)O)C2 (single isomer, unassigned) [Example 127] : > 100 µM

Note to self: EC50 recorded for CCC1CN(c2ccc(OC(F)(F)F)cc2)CCN1S(=O)(=O)c1ccc2c(c1)C(C(=O)O)CC2 (stereo not shown) was < 5 µM

# evaluate next
So, C[C@@H]1CN(c2ccc(C(F)(F)F)c(Cl)c2)C[C@H](C)N1S(=O)(=O)c1ccc2c(c1)C(C(=O)O)CC2 (stereo partly shown) ? Its EC50 was 5 to 100 µM
